# targetDesc: Prostaglandin F2-alpha receptor (Homo sapiens, UniProt P43088)
# Sequence (P43088 whole entry): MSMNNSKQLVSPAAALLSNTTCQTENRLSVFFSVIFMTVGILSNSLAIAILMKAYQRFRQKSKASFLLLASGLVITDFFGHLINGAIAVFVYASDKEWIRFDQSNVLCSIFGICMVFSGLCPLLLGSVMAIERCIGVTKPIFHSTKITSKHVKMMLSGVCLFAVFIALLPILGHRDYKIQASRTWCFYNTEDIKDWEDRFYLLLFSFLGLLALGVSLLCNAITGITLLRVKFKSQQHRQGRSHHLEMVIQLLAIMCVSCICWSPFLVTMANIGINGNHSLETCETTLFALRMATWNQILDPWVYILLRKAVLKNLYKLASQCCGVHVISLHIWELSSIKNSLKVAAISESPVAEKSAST
# procedureDetails: Displacement of [3H]PGF-2 from human FP-receptor expressed in CHO-KI cells
# Format: cell-based
Overview of reported log10 of IC50 across a group of compounds:
measuredMetric: log10 of IC50 (log10 of the value in µM)

{"compoundString": "CCc1cccc(CC[C@H](O)CC[C@@H]2[C@@H](CCCCCCC(=O)O)[C@@H](O)C[C@H]2O)c1", "targetDesc": "Prostaglandin F2-alpha receptor (Homo sapiens, UniProt P43088)", "log10 of IC50": -0.27}
{"compoundString": "O=C(O)CCCCCC[C@@H]1[C@@H](CC[C@@H](O)CCc2cccc(C(F)(F)F)c2)[C@H](O)C[C@@H]1O", "targetDesc": "Prostaglandin F2-alpha receptor (Homo sapiens, UniProt P43088)", "log10 of IC50": -2.07}
{"compoundString": "O=C(O)CCCCCC[C@@H]1[C@@H](CC[C@@H](O)CCc2ccccc2C(F)(F)F)[C@H](O)C[C@@H]1O", "targetDesc": "Prostaglandin F2-alpha receptor (Homo sapiens, UniProt P43088)", "log10 of IC50": 0.33}
{"compoundString": "COc1ccccc1CC[C@H](O)CC[C@@H]1[C@@H](CCCCCCC(=O)O)[C@@H](O)C[C@H]1O", "targetDesc": "Prostaglandin F2-alpha receptor (Homo sapiens, UniProt P43088)", "log10 of IC50": 0.77}
{"compoundString": "O=C(O)CCCCCC[C@@H]1[C@@H](CC[C@@H](O)CCc2cccc(F)c2)[C@H](O)C[C@@H]1O", "targetDesc": "Prostaglandin F2-alpha receptor (Homo sapiens, UniProt P43088)", "log10 of IC50": -1.38}
{"compoundString": "Cc1ccccc1CC[C@H](O)CC[C@@H]1[C@@H](CCCCCCC(=O)O)[C@@H](O)C[C@H]1O", "targetDesc": "Prostaglandin F2-alpha receptor (Homo sapiens, UniProt P43088)", "log10 of IC50": -0.20}
{"compoundString": "COc1ccc(CC[C@H](O)CC[C@@H]2[C@@H](CCCCCCC(=O)O)[C@@H](O)C[C@H]2O)cc1", "targetDesc": "Prostaglandin F2-alpha receptor (Homo sapiens, UniProt P43088)", "log10 of IC50": -0.54}
{"compoundString": "O=C(O)CCCCCC[C@@H]1[C@@H](CC[C@@H](O)CCc2ccccc2F)[C@H](O)C[C@@H]1O", "targetDesc": "Prostaglandin F2-alpha receptor (Homo sapiens, UniProt P43088)", "log10 of IC50": -1.12}
{"compoundString": "O=C(O)CCCCCC[C@@H]1[C@@H](CC[C@@H](O)CCc2ccc(F)cc2)[C@H](O)C[C@@H]1O", "targetDesc": "Prostaglandin F2-alpha receptor (Homo sapiens, UniProt P43088)", "log10 of IC50": -0.68}
{"compoundString": "O=C(O)CCCCCC[C@@H]1[C@@H](CC[C@@H](O)CCc2ccccc2)[C@H](O)C[C@@H]1O", "targetDesc": "Prostaglandin F2-alpha receptor (Homo sapiens, UniProt P43088)", "log10 of IC50": -1.09}
{"compoundString": "O=C(O)CCCCCC[C@@H]1[C@@H](CC[C@@H](O)CCc2ccc(C(F)(F)F)cc2)[C@H](O)C[C@@H]1O", "targetDesc": "Prostaglandin F2-alpha receptor (Homo sapiens, UniProt P43088)", "log10 of IC50": 0.56}
{"compoundString": "COc1cccc(CC[C@H](O)CC[C@@H]2[C@@H](CCCCCCC(=O)O)[C@@H](O)C[C@H]2O)c1", "targetDesc": "Prostaglandin F2-alpha receptor (Homo sapiens, UniProt P43088)", "log10 of IC50": 0.21}
{"compoundString": "N#Cc1cccc(CC[C@H](O)CC[C@@H]2[C@@H](CCCCCCC(=O)O)[C@@H](O)C[C@H]2O)c1", "targetDesc": "Prostaglandin F2-alpha receptor (Homo sapiens, UniProt P43088)", "log10 of IC50": -0.68}
{"compoundString": "Cc1ccc(CC[C@H](O)CC[C@@H]2[C@@H](CCCCCCC(=O)O)[C@@H](O)C[C@H]2O)cc1", "targetDesc": "Prostaglandin F2-alpha receptor (Homo sapiens, UniProt P43088)", "log10 of IC50": 0.64}
